Exercise: for every item that follows, state its recorded log10 solubility kinetic.
PROTOCOL_TEXT: Kinetic solubility of compound by measuring concentration at pH 7.4 in saturated PBS buffer by UV LCMS/MS using calibration curves. The assay has been performed by Enamine biological services, Bienta Ltd.The protocol is publicly available: dx.doi.org/10.17504/protocols.io.j8nlk8y41l5r/v1
Format: physicochemical
CONDITION_CONTEXT: PBS buffer
Heads up, the numbers here are log10 of solubility kinetic in µM units.

[
  {
    "SUBSTANCE_SMILES": "O=C(Nc1cc2c(cc1C1CC1)CNC2)c1cc(F)cc2[nH]ncc12",
    "log10 solubility kinetic": 2.28
  },
  {
    "SUBSTANCE_SMILES": "O=C(Nc1ccc2c(c1)CNC2)c1cc(F)cc(-c2cn[nH]c2)c1",
    "log10 solubility kinetic": 2.27
  }
]

Below are 8 compounds. Give each one its log10 solubility kinetic.
1. NCc1cccc(NC(=O)C[C@H](NC(=O)OCc2ccccc2)c2ccc(OCc3ccccc3)c(Br)c2)c1
2. COCc1cc(Cl)cc([C@H](Nc2ccc3c(c2)CNC3)C(=O)NCC(F)F)c1
3. O=C(Nc1ccc2c(c1)CNC2)c1cc(Cl)cc2c1CCC2
4. CN(c1ccc2c(c1)CNC2)[C@H](C(=O)NCC(F)F)c1cc(Cl)cc(C2CC2)c1
5. CO[C@H]1C[C@H](n2ncc3c(C(=O)Nc4ccc5c(c4)CNC5)cc(Cl)cc32)C1
6. COc1cc(Cc2c(-c3ccc(F)cc3)noc2C)nc(N2CCNCC2)n1
7. CC[C@@H](Cc1nnn[nH]1)c1ccc(NC(=O)c2cc(Cl)cc(NC(=O)OCc3ccccc3)c2)cc1
8. O=C(Nc1cc(Cl)cc(C(=O)Nc2n[nH]c3c2CNC3)c1)OCc1ccccc1

1. 1.32
2. 2.28
3. 2.53
4. 2.24
5. 2.53
6. 2.51
7. 1.78
8. 1.41

Below are 5 compounds. Give each one its log10 solubility kinetic.
1. NCc1cccc([C@@H]2C[C@H]2c2cc(Cl)cc(NC(=O)OCc3ccccc3)c2)c1
2. CC(C)c1nc2c(C(=O)Nc3cccc(CN)c3)cccc2[nH]1
3. Cc1cc(-c2ccc([C@@H](NC(=O)OCc3ccccc3)C(=O)Nc3cccc(CN)c3)cc2)cs1
4. Nc1ccncc1-c1cc(F)cc(C(=O)Nc2ccc3c(c2)CNC3)c1
5. O=C(O)c1cc(Cl)ccc1NS(=O)(=O)c1ccc(Oc2ccccc2Cl)cc1

[1.70, 2.50, 0.90, 2.59, 2.57]

Below are 5 compounds. Give each one its log10 solubility kinetic.
1. O=C(Nc1cc2c(c(C3=CCOCC3)c1)CNC2)c1cc(F)cc2[nH]ncc12
2. O=C(Nc1ccc2c(c1)CNC2)c1cc(Cl)cc2ccncc12
3. O=C(Nc1ccc2c(c1)CNC2)c1cccc2[nH]c(C(F)(F)F)cc12
4. O=C(O)Cn1ncc2cc(-c3cc(Cl)cc(NC(=O)OCc4ccccc4)c3)ccc21
5. O=C(O)c1cc(Cl)c(F)cc1S(=O)(=O)Nc1ccc(Oc2ccccc2Cl)cc1

2.20
2.26
2.57
2.12
2.60

----------
PROTOCOL_TEXT: Kinetic solubility of compound by measuring concentration at pH 7.4 in saturated PBS buffer by UV LCMS/MS using calibration curves. The assay has been performed by Enamine biological services, Bienta Ltd.The protocol is publicly available: dx.doi.org/10.17504/protocols.io.j8nlk8y41l5r/v1
Type: physicochemical
CONDITION_CONTEXT: PBS buffer
PROPERTY_NAME: log10(solubility kinetic) (log10 of the value in µM)
Heads up, the numbers here are log10 of solubility kinetic in µM units.

Sample records with log10(solubility kinetic):
[
  {
    "SUBSTANCE_SMILES": "O=C(Nc1ccc2c(c1)CNC2)c1cc(F)cc2c1CCC2",
    "log10(solubility kinetic)": 2.27
  },
  {
    "SUBSTANCE_SMILES": "c1ccc2sc(C3CCN(Cc4c[nH]c5ccccc45)CC3)nc2c1",
    "log10(solubility kinetic)": 2.08
  },
  {
    "SUBSTANCE_SMILES": "N#CCCNC(=O)[C@H](Nc1ccc2c(c1)CNC2)c1cc(Cl)cc(C2CC2)c1",
    "log10(solubility kinetic)": 2.57
  },
  {
    "SUBSTANCE_SMILES": "NCc1cc(C(=O)O)cc([C@@H]2C[C@H]2c2cc(Cl)cc(NC(=O)OCc3ccccc3)c2)c1",
    "log10(solubility kinetic)": 1.72
  },
  {
    "SUBSTANCE_SMILES": "N#Cc1cccc(-c2nc3c(C(=O)Nc4ccc5c(c4)CNC5)cc(F)cc3[nH]2)c1",
    "log10(solubility kinetic)": 0.48
  },
  {
    "SUBSTANCE_SMILES": "C=CC[C@H](Nc1cccc(-c2nn[nH]n2)c1)c1cc(Cl)cc(NC(=O)OCc2ccccc2)c1",
    "log10(solubility kinetic)": 2.52
  },
  {
    "SUBSTANCE_SMILES": "CCCCNC(=O)[C@H](Nc1ccc2c(c1)CNC2)c1cc(Cl)cc(C2CC2)c1",
    "log10(solubility kinetic)": 2.58
  },
  {
    "SUBSTANCE_SMILES": "NCc1cccc(NC(=O)c2cc(OCc3ccccc3)ccc2CNC(=O)OCc2ccccc2)c1",
    "log10(solubility kinetic)": 1.15
  },
  {
    "SUBSTANCE_SMILES": "Cc1c(C(=O)Nc2cc(-c3cccnc3)ccn2)cc(C2CC2)n1C",
    "log10(solubility kinetic)": 2.25
  },
  {
    "SUBSTANCE_SMILES": "CNC(=O)[C@H](Nc1cccc(-c2nn[nH]n2)c1)c1cc(Cl)cc2[nH]ncc12",
    "log10(solubility kinetic)": 2.54
  }
]

Below are 3 compounds. Give each one its log10(solubility kinetic).
1. O=C(Nc1cc(Cl)cc(C(=O)Nc2cccc(-c3nnn[nH]3)c2)c1)OCc1ccccc1
2. O=C(NCC(F)(F)F)c1cc(Cl)c(F)cc1NS(=O)(=O)c1ccc(Oc2ccccc2Cl)cc1
3. NCc1cccc(NC(=O)C[C@@H](NC(=O)OCc2ccccc2)c2ccc(OCc3ccccc3)cc2)c1

1.81
1.15
1.23
